The binders listed here are annotated with their OD450 ratio sample/blank.
- target.or.system: native soluble IL-6R in human plasma (human, UniProt P08887)
- measurement.protocol: ELISA 1, periplasmic extract; competitor IL-6; human plasma
- Text: In this ELISA, plasma was used as a source of native soluble IL-6R. By this assay, we aimed to confirm the alphascreen results and to get a view on the cross-reactivity of the clones towards cynomolgous IL-6R. […] Subsequently, plasma soluble IL-6R was captured on a B-N12 coated plate and bound IL-6 was detected using anti-IL-6 antibody BAF206 and streptavidin-HRP (ELISA 1 and ELISA 2). […]
Reply with the value as a number alone.

>  <binder>
IL6RPMP101A1 (VHH) VHH: EVQLVESGGGTVQAGGSLKLSCAASGRTFTNYAMGWFRQAPGKEREFVAAIAYATHFADSVKGRFTISRGNAKNTVYLQMNSLKPEDTAVYYCAADLSLSKMVSKITSDMDYWGKGTLVTVSS

>  <metric>
OD450 ratio sample/blank

>  <reported.value>
0.508

$$$$

Now for another entry.
Ask: Sample IL6RPMP103C4 (VHH) VHH: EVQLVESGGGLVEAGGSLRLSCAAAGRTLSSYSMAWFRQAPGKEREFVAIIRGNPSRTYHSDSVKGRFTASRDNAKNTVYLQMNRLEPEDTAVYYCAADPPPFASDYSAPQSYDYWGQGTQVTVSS — what was its OD450 ratio sample/blank?
Result: 0.959

Where these numbers come from: patent US10618964B2
